Taken from the supplement of paper PMC6555819.

# System: RARb:RXRa (NR concentration 270 nM, RXRa partner concentration 90 nM)
# EXPERIMENT DESCRIPTION: PBM binding z-score (relative to random genomic background probes); higher = stronger binding; sequences stand for … in GC…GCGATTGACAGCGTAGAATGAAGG
PROPERTY NAME: PBM binding z-score
I'd appreciate a reply containing only the number, no unit.

>  <SEQUENCE TEXT>
ATATGTAGGTTAGGGACATTCAGAAAGTAGGGAA

>  <PBM binding z-score>
1.04

$$$$

Prompt: Need PBM binding z-score, item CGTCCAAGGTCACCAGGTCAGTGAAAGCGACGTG
Response: 5.42
